Ref: the supplement of paper PMC10567573

B1: ZNF24 (parent)
chain: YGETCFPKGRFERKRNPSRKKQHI

Variants of: B1
TEST PROTOCOL: protein stability index of a GFP-peptide fusion (GPS, HEK-293T) (PSI 1-6); higher = more stable;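 also: lentivirally expressed fusions sorted by FACS into six bins by GFP to DsRed ratio, PSI derived from sequencing read proportions per bin multiplied by bin number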
EXPERIMENTAL SETUP: c terminus: a fixed tail appended
PROPERTY NAME: protein stability index

Illustrative cases are given below, each with its answer.
YGETCFPDGRFERKRNPSRKKQHI [K8D]
3.56
YGETCFPKGRFERKDNPSRKKQHI [R15D]
3.17
YGETCFPKGRFERKRDPSRKKQHI [N16D]
2.15

Q. Supply protein stability index value. Item: YTETCFPKGRFERKRNPSRKKQHI [G2T]
A. 2.33

Q. Supply protein stability index value. Item: YGEKCFPKGRFERKRNPSRKKQHI [T4K]
A. 2.13

Q. Supply protein stability index value. Item: YEETCFPKGRFERKRNPSRKKQHI [G2E]
A. 4.37

Q. Supply protein stability index value. Item: YGETCFPKGRFERKRNVSRKKQHI [P17V]
A. 2.25

Q. Supply protein stability index value. Item: YGETCFPKGRFERKRNPSIKKQHI [R19I]
A. 2

Q. Supply protein stability index value. Item: YGETCFPKGRFERKRNPSRKKQHY [I24Y]
A. 3

Q. Supply protein stability index value. Item: YGETCFPKGRFERKRNPSRKKQRI [H23R]
A. 2.73

Q. Supply protein stability index value. Item: YGETCFPKGRFERKQNPSRKKQHI [R15Q]
A. 2.88

Q. Supply protein stability index value. Item: YGETCFPKGRFERKWNPSRKKQHI [R15W]
A. 2.76
